Biological target: T1, human NPR1 on HEK293/hNPR1.myc.DDK cells (0 hANP) (human, UniProt P16066 33-1061)
T1 sequence: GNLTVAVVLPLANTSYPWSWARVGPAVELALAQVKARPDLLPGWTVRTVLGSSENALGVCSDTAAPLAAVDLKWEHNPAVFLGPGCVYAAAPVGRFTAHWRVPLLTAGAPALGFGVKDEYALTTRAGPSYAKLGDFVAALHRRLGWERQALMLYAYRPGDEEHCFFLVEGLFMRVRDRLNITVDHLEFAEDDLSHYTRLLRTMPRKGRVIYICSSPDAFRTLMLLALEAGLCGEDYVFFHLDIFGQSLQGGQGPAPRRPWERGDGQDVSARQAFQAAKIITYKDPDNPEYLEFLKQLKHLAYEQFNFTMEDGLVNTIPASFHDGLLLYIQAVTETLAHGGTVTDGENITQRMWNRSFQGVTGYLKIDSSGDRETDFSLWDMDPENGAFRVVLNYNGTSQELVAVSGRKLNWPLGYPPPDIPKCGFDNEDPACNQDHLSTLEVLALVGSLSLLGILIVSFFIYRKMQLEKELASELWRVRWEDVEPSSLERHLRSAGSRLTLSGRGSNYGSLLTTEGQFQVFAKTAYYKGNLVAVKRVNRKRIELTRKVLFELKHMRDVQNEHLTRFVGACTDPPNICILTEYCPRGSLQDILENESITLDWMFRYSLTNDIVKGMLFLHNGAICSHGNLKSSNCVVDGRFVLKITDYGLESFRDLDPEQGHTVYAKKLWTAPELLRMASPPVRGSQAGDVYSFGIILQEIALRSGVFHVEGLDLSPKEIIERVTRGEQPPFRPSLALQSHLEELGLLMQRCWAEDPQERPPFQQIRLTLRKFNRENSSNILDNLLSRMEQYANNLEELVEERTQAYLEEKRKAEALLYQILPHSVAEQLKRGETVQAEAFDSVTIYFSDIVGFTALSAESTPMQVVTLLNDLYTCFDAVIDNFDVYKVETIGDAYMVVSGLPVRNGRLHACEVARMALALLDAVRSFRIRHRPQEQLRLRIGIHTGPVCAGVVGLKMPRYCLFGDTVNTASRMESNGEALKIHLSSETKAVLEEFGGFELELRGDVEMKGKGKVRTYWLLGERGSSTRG
Assay: cell-based or functional assay
Please go through the items and note down their % Activation (vs. ANP max), Expt II.
Form field: result (number plus unit)

// query Determine its reported % Activation (vs. ANP max), Expt II: mAb22810 (antibody, human IgG4, V domains shown) VH: EVQLVESGGGLVKPGGSLRLSCVVSGFTFRIYTMNWVRQAPGKGLEWVASISSSSSFINYADSLKGRFTISRDNAQNSLYLQMNSLRAEDTAIYYCARAAGNDVLPGRMDVWGQGTSVTVSS VL: EIVLTQSPGTLSLSPGERATLSCRASQSVSSNYLAWYQQKPGQVPSLLIYGASSRATGIPDRFSGSGSGTDFTLTITRLEPEDFAVYYCQQYGISPWTFGQGTKVEIK
// result 126%

// query Determine its reported % Activation (vs. ANP max), Expt II: mAb22033 (antibody, human IgG4, V domains shown) VH: QVQLVQSGAEVKKPGASVTVSCKASGYTFTDYYMHWVRQAPGQGLEWMGWIKPNSGGTNSAQRFQGRITMTWDTSISTAYMELSRLRSDDTAVYYCSRGGPVMNYYYYYGMDVWGQGTTVTVSS VL: NIQMTQSPSSLSASVGDRVTITCRASQSIDSYLNWYQQKPGKAPKLLIYVASSLQSGVPSRFSGSGSGKDFTLTISSLQPEDFATYYCQQSYSIPTFGQGTRLEIK
// result 129%

// query Determine its reported % Activation (vs. ANP max), Expt II: mAb25491 (antibody, human IgG4, V domains shown) VH: QVQLVQSGAEVMKPGASVKVSCKASGYTFTGYYIHWVRQAPGQGLEWMGWITPNSGATNYAQKFQGRVTLTRDTSISTAYMELTRLKSDDTAVYYCARGGQLEFFYYYYGMDVWGQGTTVTVSS VL: DIQMTQSPSSLSASAGDRVTITCRASQSIDSYLNWYQQKPGKAPKLLISATSGFQSGVPSRFSGSGSGTDFTLTISSLQPEDFGTYYCQQSYTTPITFGQGTRLEIK
// result 104%

// query Determine its reported % Activation (vs. ANP max), Expt II: mAb22805 (antibody, human IgG4, V domains shown) VH: QVQLVESGGGVVQPGRSLRLSCAASGFTFSTYGMHWVRQAPGKGLEWVALIWNDGSNKYYADSVKGRFTISRDNSKNTLDLQMNSLRAEDTAVYYCARLNTRITGTTNLDYWGQGTLVTVSS VL: DIQMTQSPSSLSASVGDRVTVSCRASQSIANYLNWYQQKPGKAPNLLIYGAYTLQSGVPSRFRGSGSGTDFTLTISSLQPEDFATYYCQQTYSTPPITFGQGTRLEIK
// result 119%

// query Determine its reported % Activation (vs. ANP max), Expt II: mAb25497 (antibody, human IgG4, V domains shown) VH: QVQLVQSGAEVKEPGASVKVSCKASGYTFTDYYIHWVRQAPGQGLEWMGWINLNSGGKNHAQKFQGRVTVTSDTSINTAYIELGRLRGDDTAVYYCSRGGGSHYYYYYHGMDVWGQGTTVTVSS VL: DIQMTQSPSSLSASVGDRITITCRASHSIDSYLNWYQQKPGKAPKLLIYPASTLQSGVPSRFSGSGSGTDFTLTISSLQPEDSAIYYCQQSYSTPLTFGGGTKVEIK
// result 103%

// query Determine its reported % Activation (vs. ANP max), Expt II: mAb22035 (antibody, human IgG4, V domains shown) VH: EVQLVESGGGLVQPGRSLRLSCAASGFTFDDYAMHWVRQAPGKGLEWVSGISWNSGTIGYADSVKGRFTMSRDNAKNSLYLQMNSLRPEDTALYYCAKDMGVSLALWGAFDIWGQGTMVTVSS VL: DIQMTQSPSSLSASVGDKVTITCRASQNIRTYLNWYQQKPGKAPKVLISTASSLQSGVPSRFSGSGSGTDFTLTISSLQPEDFAVFYCQQSFGIPRTFGQGTKVEIK
// result 56.8%

// query Determine its reported % Activation (vs. ANP max), Expt II: mAb25479 (antibody, human IgG4, V domains shown) VH: QVQLVQSGAEVKKPGASVKVSCKASGYTFTGYYIHWVRQAPGQGLEWMGWINPNSIGTNYAQKFQGRVTLTRDTSISTAYMELSSLRSDDTAVYYCARGGSSSYYYYYYGMDVWGQGTTVTVSS VL: DIQMTQSPSSLSASVGDRVTITCRASQSIDNYLNWYQQKPGKAPKLLIYVASSLQSGVPSRFSGSGSGTDFTLTISSLQPEDFATYYCQQSYSTPLTFGGGTKVEIK
// result 82.8%

These entries and their values trace back to patent US20240309103A1.
